Hello, the source for this data is PubChem BioAssay, in case you need it.

Experiment: inhibition of 3D7 malaria parasite growth – strain 3D7 (AID 2306);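 further: 0% = DMSO wells and 100% = chloroquine plus artemisinin control wells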
Details: P. falciparum 3D7 erythrocytic growth, LDH absorbance, 72 h; at 2 µM; active compounds read high
measuredProperty: growth inhibition (%)
Give the quantity in %, number only.

The value of growth inhibition measured for the compound `COc1ccccc1-c1nc2c(ccc3nc(N)nc(N)c32)[nH]1` turned out to be 101

The value of growth inhibition measured for the compound `CCCCCCCN(Cc1ccc(OC(C)(C)C(=O)OCC)cc1)C(=O)Cc1ccc(F)cc1F` turned out to be 93

The value of growth inhibition measured for the compound `Clc1ccc(-c2cnc3ccc(NCCc4cccnc4)nn23)cc1` turned out to be 97

The value of growth inhibition measured for the compound `COc1ccc(CNCc2ccc(-c3ccc(-c4nc5ccc(C(F)(F)F)cc5[nH]4)s3)cc2)cc1` turned out to be 100

The value of growth inhibition measured for the compound `COc1ccc(CNCC(C)(C)c2nc(-c3ccc(Cl)c(O)c3)c(-c3ccncc3)[nH]2)cc1` turned out to be 101

Next:
The value of growth inhibition measured for the compound O=C(/C=C/c1ccc(Cl)c(Cl)c1)NCCCCCN1CCCC(CNC(=O)c2sc3ccccc3c2Cl)C1 (centres undefined) turned out to be 98

The value of growth inhibition measured for the compound `COc1ccc(-c2nc(NC(=O)Cc3ccc4c(c3)OCCO4)sc2C)cc1` turned out to be 100

The value of growth inhibition measured for the compound `CCN(CC)CCN(CCCc1ccc(-c2ccc(C(F)(F)F)cc2)cc1)C(=O)Cn1c(CCc2cccc(F)c2F)nc(=O)c2ccccc21` turned out to be 101

The value of growth inhibition measured for the compound CCC(C)c1ccc(-n2c(Nc3ccccc3)nc3cc(S(N)(=O)=O)ccc32)cc1 (centres undefined) turned out to be 88
